Target: KRAS^G12C (recombinant KRAS mutant G12C, C51S, C80L, C118S) (Homo sapiens, UniProt P01116, C118S/C51S/C80L/G12C)
Construct: made in house
Experiment: Covalent binding assay by mass spectrometry (intact mass, % covalent adduct)
Details: 25 µM protein, 25 µM compound, room temperature, 2 h
The compounds listed here are annotated with their MS assay [% binding] (KRAS^G12C bound fraction).
measure.name: MS assay [% binding] (KRAS^G12C bound fraction) (%)

compound	observed.result
C=CC(=O)N1CCC(c2cc3cc(O)c(-c4ncccc4F)cc3c(=O)[nH]2)C1 (centres unmarked)	0
C=CC(=O)N1CCC(c2cc3ccc(-c4c(O)cccc4F)cc3c(=O)n2C)C1 (centres unmarked)	11
C=CC(=O)N1CCC(c2cc3cc(Cl)c(-c4c(O)cccc4F)cc3c(=O)[nH]2)C1 (centres unmarked)	51
C=CC(=O)N1CCC(c2cc3ccc(-c4ccc(F)cc4F)cc3c(=O)[nH]2)C1 (centres unmarked)	34
C=CC(=O)N1CCC(c2cc3cnc(-c4c(O)cccc4F)cc3c(=O)[nH]2)C1 (centres unmarked)	73
